Reference for the values: PubChem BioAssay (NCI)

Tested on: UACC-62 melanoma
assay_protocol: NCI tumour cell line growth inhibition, 48 h
# TGI values compiled below

molecule: Cc1c(NC(=S)Nc2ccc([N+](=O)[O-])cc2)c(=O)n(-c2ccccc2)n1C
TGI: > 100 µM

molecule: O=C(Cc1ccc2ccccc2c1)NCc1ccc(C(=O)NCCc2ccccc2)cc1
TGI: > 100 µM

molecule: COc1ccc(NC(=O)Oc2ccc3c(C)cc(=O)oc3c2)c(OC)c1 (tested in a mixture with another compound)
TGI: > 100 µM

molecule: CCOC(=O)C12CCC(=O)N1N(C)c1ncccc1N2 (stereo unspecified)
TGI: > 100 µM

molecule: COc1ccc(/[N+]([O-])=C/c2ccc(OC(=S)S)c(OC)c2)cc1
TGI: > 100 µM

Value of measured TGI for the entry Cc1ncn(-c2ccccc2O)c1C : > 100 µM

Value of measured TGI for the entry CC1C(C)(C)C23CC12C1(OCCO1)C3Br (stereo unspecified) : > 100 µM

Value of measured TGI for the entry c1ccc(SC(Sc2ccccc2)=C2CCC2)cc1 : > 100 µM

Value of measured TGI for the entry CN(C)c1ccc(/C=c2\sc3nnc(-c4ccco4)n3c2=O)cc1 : > 100 µM

Value of measured TGI for the entry Cc1cn(C2CC(n3cc(Cn4ccc(=O)[nH]c4=O)nn3)C(CO)O2)c(=O)[nH]c1=O (stereo unspecified) : > 100 µM

Value of measured TGI for the entry CSC(=NC(=O)c1ccccc1Cl)SCCSC(=NC(=O)c1ccccc1Cl)SC : > 100 µM

###

System: IGROV1 ovarian
assay_protocol: NCI tumour cell line growth inhibition, 48 h
measure_name: TGI (µM)
I only need the number, in µM, no unit after it.

Assay IGROV1 ovarian, sample C#C[C@]1(O)CC[C@H]2[C@@H]3CCC4=C/C(=N\OCCN5CCCCC5)CC[C@]4(C)[C@H]3CC[C@@]21C , TGI read: 19.1

Assay IGROV1 ovarian, sample COc1cc2nc(Nc3cccc(Cl)c3)nc(N)c2cc1OC , TGI read: 25.4

Assay IGROV1 ovarian, sample CC(C)(C)c1ccc2c(c1)OP1(Oc3c(Cl)cc(Cl)c4cccnc34)(O2)Oc2ccc(C(C)(C)C)cc2O1 , TGI read: 25.7

Assay IGROV1 ovarian, sample COc1ccc2c(c1)CCC1C2CC[C@@]2(C)C1CC[C@@H]2NC(=O)Cc1ccc(O)c(O)c1 (some centres undefined) , TGI read: 7.68

###

Tested on: MDA-N
assay_protocol: NCI tumour cell line growth inhibition, 48 h
measure_name: TGI

Worked examples, 2 molecules total:
molecule: CC(C)C1CSC2N1C(=O)C2(OCc1ccccc1)C1CC1 (stereo not drawn)
TGI: > 100 µM
--
molecule: CC(C)(C)C1=C(Br)C(F)(C(C)(C)C)OP1(=O)c1ccccc1 (stereo not drawn)
TGI: 34.7 µM

Assay MDA-N, sample Cc1ccc(S(=O)(=O)n2cc(C=O)c(-c3cn(S(=O)(=O)c4ccc(C)cc4)cc3-c3cn(S(=O)(=O)c4ccc(C)cc4)cc3C=O)c2)cc1 , TGI read: > 100 µM

###

Test system: SK-OV-3 ovarian
assay_protocol: NCI tumour cell line growth inhibition, 48 h
measure_name: TGI (µM)
I only need the number, in µM, no unit after it.

Worked examples, 2 molecules total:
compound_structure: COC(=O)/C=C1/SC(=Nc2cccc(Cl)c2)N(CCc2c[nH]c3ccc(O)cc23)C1=O
TGI, µM: 5.01
--
compound_structure: Cc1nc(-c2ccccc2)cn2c1nc1ccccc12
TGI, µM: 26

Value of measured TGI for the entry CCn1c(SCC(=O)N/N=C2\SCC(=O)N2c2ccc(C)cc2)nc2ccccc2c1=O : 36
